Molecular target: NR1/NR2A (Homo sapiens (Human), UniProt Q05586+Q12879)
Sequence (Q12879 23-1464, other chains not shown): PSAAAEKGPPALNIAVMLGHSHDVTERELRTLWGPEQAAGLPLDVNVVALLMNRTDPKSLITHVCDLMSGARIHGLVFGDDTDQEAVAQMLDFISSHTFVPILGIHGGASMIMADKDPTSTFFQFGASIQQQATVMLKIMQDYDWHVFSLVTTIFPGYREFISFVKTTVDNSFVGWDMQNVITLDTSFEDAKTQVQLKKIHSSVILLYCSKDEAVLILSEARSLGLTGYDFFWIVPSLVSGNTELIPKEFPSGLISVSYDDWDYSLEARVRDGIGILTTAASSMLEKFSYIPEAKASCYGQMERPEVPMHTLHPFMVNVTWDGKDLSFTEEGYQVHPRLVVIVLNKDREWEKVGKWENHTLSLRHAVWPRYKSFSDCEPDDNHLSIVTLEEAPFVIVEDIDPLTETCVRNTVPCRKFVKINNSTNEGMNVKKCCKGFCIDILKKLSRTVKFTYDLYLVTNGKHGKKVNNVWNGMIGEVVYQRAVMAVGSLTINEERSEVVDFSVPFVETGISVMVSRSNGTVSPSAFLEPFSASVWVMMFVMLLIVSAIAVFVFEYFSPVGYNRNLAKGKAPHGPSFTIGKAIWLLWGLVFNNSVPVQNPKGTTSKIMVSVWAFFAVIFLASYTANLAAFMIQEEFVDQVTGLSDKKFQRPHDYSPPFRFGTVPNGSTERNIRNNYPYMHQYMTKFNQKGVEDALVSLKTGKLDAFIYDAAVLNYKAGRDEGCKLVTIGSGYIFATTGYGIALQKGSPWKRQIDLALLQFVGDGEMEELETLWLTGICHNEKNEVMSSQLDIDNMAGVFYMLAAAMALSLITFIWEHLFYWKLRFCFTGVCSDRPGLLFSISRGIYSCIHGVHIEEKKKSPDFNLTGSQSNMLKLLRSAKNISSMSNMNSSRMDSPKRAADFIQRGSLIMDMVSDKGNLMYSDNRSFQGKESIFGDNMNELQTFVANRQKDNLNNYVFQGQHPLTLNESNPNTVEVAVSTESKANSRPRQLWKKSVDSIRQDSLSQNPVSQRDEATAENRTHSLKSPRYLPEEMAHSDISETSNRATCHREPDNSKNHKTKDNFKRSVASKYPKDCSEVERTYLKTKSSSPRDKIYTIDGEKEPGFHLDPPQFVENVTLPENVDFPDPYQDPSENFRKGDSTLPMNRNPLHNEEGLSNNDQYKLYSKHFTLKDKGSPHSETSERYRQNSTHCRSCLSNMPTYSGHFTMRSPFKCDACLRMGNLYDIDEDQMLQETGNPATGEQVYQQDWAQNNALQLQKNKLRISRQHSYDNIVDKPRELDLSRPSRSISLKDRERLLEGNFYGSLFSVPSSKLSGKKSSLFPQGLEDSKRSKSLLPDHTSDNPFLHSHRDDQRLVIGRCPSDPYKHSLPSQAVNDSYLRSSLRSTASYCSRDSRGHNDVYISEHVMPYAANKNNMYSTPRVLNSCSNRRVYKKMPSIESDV
Experiment: FDSS Ca2+ influx inhibition assay in HEK293 cells expressing NR1/NR2A
Format: cell-based
Conditions: 3 μM glutamate, 3 μM glycine, 1 mM Ca2+, read-out: Binned Activity

# Chemical structure, IC50
records = [
    ("Cn1nccc1CNC(=O)c1ccc(CNS(=O)(=O)c2ccc(F)c(Cl)c2)cn1", "> 10 µM"),
    ("CC(=O)N1CCc2cc(S(=O)(=O)NCc3cnc(C(=O)NCc4cnc(C)s4)cn3)ccc21", "> 10 µM"),
    ("Cc1ncc(CNC(=O)c2ccc(CNS(=O)(=O)c3ccc(F)c(Cl)c3)cn2)s1", "0.1 to 1 µM"),
    ("Cc1ncc(CNC(=O)c2cnc(CNS(=O)(=O)c3cc(Cl)ccc3F)cn2)s1", "> 10 µM"),
    ("O=C(NCc1cnccn1)c1ccc(CNS(=O)(=O)c2ccc(F)c(Cl)c2)nn1", "> 10 µM"),
    ("Cn1cc(CNC(=O)c2ccc(CNS(=O)(=O)c3ccc(F)c(Cl)c3)cn2)cn1", "1 to 10 µM"),
    ("COc1cc(CNC(=O)c2ccc(CNS(=O)(=O)c3ccc(F)c(Cl)c3)nc2)ccn1", "> 10 µM"),
    ("Cc1ncc(CNC(=O)c2ccc(CNS(=O)(=O)c3cc(Cl)cc(Cl)c3)cn2)s1", "> 10 µM"),
    ("O=C(NCc1cccnc1)c1cnc(CNS(=O)(=O)c2ccc(F)c(Cl)c2)cn1", "0.1 to 1 µM"),
    ("Cc1nnc(CNC(=O)c2cnc(CNS(=O)(=O)c3ccc(F)c(Cl)c3)cn2)o1", "1 to 10 µM"),
    ("Cc1ccc(CNC(=O)c2ccc(CNS(=O)(=O)c3ccc(F)c(Cl)c3)cn2)s1", "> 10 µM"),
    ("Cc1ncc(CNC(=O)c2cnc(CNS(=O)(=O)c3ccc(Cl)c(Cl)c3)cn2)s1", "> 10 µM"),
    ("Cc1ncc(CNC(=O)c2cnc(CNS(=O)(=O)c3cc4ccccc4s3)cn2)s1", "> 10 µM"),
    ("O=C(NCc1cocn1)c1cnc(CNS(=O)(=O)c2ccc(F)c(Cl)c2)cn1", "> 10 µM"),
    ("Cc1cc(CNC(=O)c2ccc(CNS(=O)(=O)c3ccc(F)c(Cl)c3)cn2)n(C)n1", "> 10 µM"),
    ("Cc1ncc(CNC(=O)c2ccc(CNS(=O)(=O)c3ccc(Cl)s3)cn2)s1", "> 10 µM"),
    ("O=C(NCc1ccc(Cl)c(F)c1)c1ccc(CNS(=O)(=O)c2ccc(F)c(Cl)c2)cn1", "> 10 µM"),
    ("Cc1nnc(CNC(=O)c2ccc(CNS(=O)(=O)c3ccc(F)c(Cl)c3)nc2)s1", "> 10 µM"),
    ("COc1ccc(CCNC(=O)c2ccc(CNS(=O)(=O)c3ccc(F)c(Cl)c3)nn2)cc1", "> 10 µM"),
    ("Cc1nc(CNC(=O)c2cnc(CNS(=O)(=O)c3ccc(F)c(Cl)c3)cn2)cs1", "> 10 µM"),
    ("Cn1cnc(CNC(=O)c2ccc(CNS(=O)(=O)c3ccc(F)c(Cl)c3)cn2)c1", "> 10 µM"),
    ("O=C(NCc1nccs1)c1ccc(CNS(=O)(=O)c2ccc(F)c(Cl)c2)cn1", "1 to 10 µM"),
    ("Cc1nc(C)c(CNC(=O)c2cnc(CNS(=O)(=O)c3ccc(F)c(Cl)c3)cn2)s1", "> 10 µM"),
    ("Cc1ncc(CNC(=O)c2cnc(CNS(=O)(=O)c3ccsc3)cn2)s1", "> 10 µM"),
    ("O=C(NCc1cncc(F)c1)c1cnc(CNS(=O)(=O)c2ccc(F)c(Cl)c2)cn1", "1 to 10 µM"),
    ("O=C(NCc1ccno1)c1ccc(CNS(=O)(=O)c2ccc(F)c(Cl)c2)nc1", "> 10 µM"),
    ("O=C(NCc1cncs1)c1ccc(CNS(=O)(=O)c2ccc(F)c(Cl)c2)nc1", "> 10 µM"),
    ("COc1cc(CNC(=O)c2cnc(CNS(=O)(=O)c3ccc(F)c(Cl)c3)cn2)ccn1", "0.1 to 1 µM"),
    ("O=C(NCc1cocn1)c1ccc(CNS(=O)(=O)c2ccc(F)c(Cl)c2)nn1", "> 10 µM"),
    ("Cc1ccncc1CNC(=O)c1ccc(CNS(=O)(=O)c2ccc(F)c(Cl)c2)nn1", "> 10 µM"),
    ("COc1ccccc1CNC(=O)c1ccc(CNS(=O)(=O)c2ccc(F)c(Cl)c2)nc1", "> 10 µM"),
    ("O=C(NCc1cnccn1)c1ccc(CNS(=O)(=O)c2ccc(F)c(Cl)c2)cn1", "1 to 10 µM"),
    ("Cc1ncc(CNC(=O)c2cnc(CNS(=O)(=O)c3ccc(F)cc3)c(C)n2)s1", "0.1 to 1 µM"),
    ("Cc1ncc(CNC(=O)c2cnc(CNC(=O)c3ccc(Cl)c(Cl)c3)cn2)s1", "> 10 µM"),
    ("Cc1ncc(CNC(=O)c2cnc(CNS(=O)(=O)c3cc(F)cc(F)c3)cn2)s1", "> 10 µM"),
    ("O=C(NCc1cnccn1)c1cnc(CNS(=O)(=O)c2ccc(F)c(Cl)c2)cn1", "1 to 10 µM"),
    ("Cc1ncc(CNC(=O)c2ccc(CNS(=O)(=O)c3ccc(Oc4ccccc4)nc3)cn2)s1", "> 10 µM"),
    ("O=C(NCc1ncccc1C(F)(F)F)c1cnc(CNS(=O)(=O)c2ccc(F)c(Cl)c2)cn1", "> 10 µM"),
    ("Cn1nccc1CNC(=O)c1ccc(CNS(=O)(=O)c2ccc(F)c(Cl)c2)nc1", "> 10 µM"),
]
